System: isolated perfused rat hearts
method_notes: Load independent inotropic effects, ex vivo assay (isolated perfused rat hearts, Langendorff)
experimental_setup: percent change over vehicle
Overview of recorded Isolated Heart Assay dP/dtmax (%) for various compounds
# include the unit after the value

As a guide, the following entries are already answered.
COc1cccc(OC)c1-n1c(NS(=O)(=O)[C@H](C)[C@@H](OC)c2ncc(Cl)cn2)nnc1-c1cncc(C)c1 (single isomer, unassigned)    17.0%
CCO[C@H](c1ncc(C)cn1)[C@H](C)S(=O)(=O)Nc1nnc(-c2cccnc2)n1-c1c(OC)cccc1OC    15%
Cc1cnc([C@@H](C)[C@H](C)S(=O)(=O)Nc2nnc(-c3cncc(C)c3)n2-c2c(F)cccc2F)nc1    6.02%

Now for another entry.
### Prompt Provide one value: measured Isolated Heart Assay dP/dtmax (%) of COc1cccc(OC)c1-n1c(NS(=O)(=O)[C@H](C)[C@@H](OC)c2ccc(Cl)cn2)nnc1-c1cccnc1 (single isomer, unassigned)
### Response 4.1%

----------
target_under_test: human APJ receptor (Homo sapiens (Human))
method_notes: biochemical
experimental_setup: read-out: Activity hAPJ SPA EC50 IP
readout_kind: EC50 (nM)
Please state the figure in nM; there is no need to write the unit.

As a guide, the following entries are already answered.
COc1cccc(-c2nnc(NS(=O)(=O)[C@@H](C)[C@H](C)c3cnc(C)cn3)n2C2CCOCC2)n1 [Example 843.0]    970
COc1cccc(OC)c1-n1c(NS(=O)(=O)[C@@H](C)[C@H](O)c2ncc(C)cn2)nnc1-c1cccc(C)n1 [Example 99.0]    2.3
COc1ncnc(OC)c1-n1c(NS(=O)(=O)[C@@H]2C[C@H](OC)CN(c3ncc(F)cn3)C2)nnc1-c1cccnc1 (stereo in doubt) [Example 813.0]    140

### Prompt Provide one value: measured EC50 of COc1cccc(OC)c1-n1c(NS(=O)(=O)CCc2ccc(F)cc2C#N)nnc1-c1cccc(=O)[nH]1 [Example 461.0]
### Response 670

### Prompt Provide one value: measured EC50 of COc1cccc(-n2c(NS(=O)(=O)[C@@H](C)[C@H](OC)c3ncc(C)cn3)nnc2-c2cccc(OC)n2)c1 [Example 64.0]
### Response 10

### Prompt Provide one value: measured EC50 of COc1cccc(F)c1-n1c(NS(=O)(=O)[C@@H](C)[C@H](C)c2ncc(C)cn2)nnc1-c1cncc(C)c1 (atropisomer, axis not shown) [Example 688.0]
### Response 0.66

### Prompt Provide one value: measured EC50 of COc1cccc(-c2nnc(NS(=O)(=O)/C(C)=C(\C)c3ncc(F)cn3)n2-c2c(OC)cccc2OC)n1 [Example 505.0]
### Response 1.9

----------
target_under_test: human APJ receptor (Homo sapiens (Human), UniProt P35414)
Sequence (P35414 whole entry): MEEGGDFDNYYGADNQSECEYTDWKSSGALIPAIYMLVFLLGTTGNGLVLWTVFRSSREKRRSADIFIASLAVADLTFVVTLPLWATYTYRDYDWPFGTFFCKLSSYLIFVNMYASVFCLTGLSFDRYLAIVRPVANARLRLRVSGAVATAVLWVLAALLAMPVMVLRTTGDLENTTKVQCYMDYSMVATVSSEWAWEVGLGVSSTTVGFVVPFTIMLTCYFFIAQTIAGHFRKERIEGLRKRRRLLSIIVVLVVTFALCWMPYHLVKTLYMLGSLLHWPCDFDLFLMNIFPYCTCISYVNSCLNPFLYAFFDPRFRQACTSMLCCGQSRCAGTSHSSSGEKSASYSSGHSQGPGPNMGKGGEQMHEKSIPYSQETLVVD
method_notes: biochemical
experimental_setup: read-out: Activity hAPJ SPA EC50 IP
Overview of recorded pEC50 for various compounds
pEC50 field: float, defined as -log10 of concentration (mol/L).

As a guide, the following entries are already answered.
COc1cccc(OC)c1-n1c(NS(=O)(=O)[C@@H](C)[C@H](C)c2ncc(F)cn2)nnc1-c1cccc(OCC(F)(F)F)n1    9.92
COc1cccc(OC)c1-n1c(NS(=O)(=O)[C@H](C)[C@@H](O)c2cn3ccccc3n2)nnc1-c1cccnc1 (single isomer, unassigned) [Example 736.0]    7.72
COc1cccc(OC)c1-n1c(NS(=O)(=O)[C@@H](C)[C@H](OC)c2ncccn2)nnc1-c1cncc(C)c1    8.55
COc1cccc(-c2nnc(NS(=O)(=O)[C@@H](C)[C@H](OC)c3ncc(C)cn3)n2-c2ccc(F)c(C(F)(F)F)c2)n1    6.46
COc1cccc(OC)c1-n1c(NS(=O)(=O)C[C@H](O)c2ncc(C)cn2)nnc1-c1cncc(C)c1 (single isomer, unassigned)    8.82
Cc1cnc([C@@H](C)[C@H](C)S(=O)(=O)Nc2nnc(-c3cccc(C)n3)n2-c2c(F)cccc2F)cn1    7.70
C[C@H](c1ccc(Cl)cn1)[C@H](C)S(=O)(=O)Nc1nnc(-c2cccnc2)n1-c1c(O)nc[nH]c1=O    6.11
COc1cccc(OC)c1-n1c(NS(=O)(=O)[C@H](C)[C@@H](OC[C@H](C)O)c2ncc(C)cn2)nnc1-c1cncc(C)c1 (single isomer, unassigned) [Example 402.0]    9.07

### Prompt Provide one value: measured pEC50 of COc1cccc(-c2nnc(NS(=O)(=O)[C@@H](C)[C@H](OC)c3ncc(C)cn3)n2-c2ccc(F)cc2)n1
### Response 6.74

### Prompt Provide one value: measured pEC50 of COc1cccc(-c2nnc(NS(=O)(=O)[C@@H](C)[C@@H](O)C(C)(C)C)n2-c2c(OC)cccc2OC)n1 (single isomer, unassigned) [Example 435.0]
### Response 7.62

### Prompt Provide one value: measured pEC50 of COc1cccc(-c2nnc(NS(=O)(=O)[C@@H](C)[C@H](O)c3ccc(F)cc3F)n2-c2c(OC)cccc2OC)n1 (single isomer, unassigned) [Example 282.0]
### Response 9.15

### Prompt Provide one value: measured pEC50 of COc1cccc(-c2nnc(NS(C)(=O)=O)n2-c2c(OC)cccc2OC)n1
### Response 6.66

----------
target_under_test: human APJ receptor (Homo sapiens (Human))
method_notes: biochemical
Format: biochemical
experimental_setup: read-out: Activity hAPJ SPA EC50 IP
readout_kind: EC50 (nM)
Please state the figure in nM; there is no need to write the unit.

As a guide, the following entries are already answered.
COc1cccc(-c2nnc(NS(=O)(=O)[C@@H](C)[C@H](C)c3ncc(C)cn3)n2-c2c(F)cccc2F)n1    0.4
COc1cccc(OC)c1-n1c(NS(=O)(=O)[C@@H](C)[C@H](OC)c2ncc(C)cn2)nnc1-c1ccncc1    18
COc1cccc(-c2nnc(NS(=O)(=O)[C@@H](C)[C@H](OC)c3ncc(C)cn3)n2-c2c(F)cccc2F)n1    0.81

### Prompt Provide one value: measured EC50 of COc1cnc([C@@H](C)[C@H](C)S(=O)(=O)Nc2nnc(-c3cccc(OC)n3)n2C2CCOCC2)cn1
### Response 86

----------
target_under_test: human APJ receptor (Homo sapiens (Human))
method_notes: biochemical
experimental_setup: read-out: Activity hAPJ SPA EC50 IP
readout_kind: EC50 (nM)
Please state the figure in nM; there is no need to write the unit.

COc1cccc(OC)c1-n1c(NS(=O)(=O)[C@@H](C)[C@@](C)(F)c2ncc(C#N)cn2)nnc1-c1cncc(C)c1 (single isomer, unassigned) [Example 538.0]    4.5
COc1ncnc(OC)c1-n1c(NS(=O)(=O)[C@@H](C)[C@H](OC)c2ncc(C)cn2)nnc1-c1ccccn1    6.5

Now for another entry.
### Prompt Provide one value: measured EC50 of COc1cccc(OC)c1-n1c(NS(=O)(=O)[C@@H](C)Cc2ncc(F)cn2)nnc1-c1cncc(Cl)c1 (single isomer, unassigned) [Example 220.0]
### Response 7.1

----------
target_under_test: human APJ receptor (Homo sapiens (Human))
method_notes: biochemical
experimental_setup: read-out: Activity hAPJ SPA EC50 IP
readout_kind: EC50 (nM)
Please state the figure in nM; there is no need to write the unit.

As a guide, the following entries are already answered.
COc1cccc(OC)c1-n1c(NS(=O)(=O)[C@H](C)[C@@H](OC)c2ccc(Cl)cn2)nnc1-c1cccnc1 (single isomer, unassigned) [Example 531.0]    0.2
COc1cccc(OC)c1-n1c(NS(=O)(=O)[C@H](C)[C@@H](OC[C@H](C)O)c2ncc(C)cn2)nnc1-c1cncc(C)c1 (single isomer, unassigned) [Example 401.0]    21
COc1cccc(OC)c1-n1c(NS(=O)(=O)[C@H](C)[C@H](OC(C)C)c2ccc(Cl)cn2)nnc1-c1cncc(C)c1 (single isomer, unassigned) [Example 744.0]    26
COc1cccc(OC)c1-n1c(NS(=O)(=O)[C@@H](C)[C@H](OC)C2CC(C)(C)C2)nnc1-c1cncc(C)c1 (single isomer, unassigned) [Example 727.0]    200

Now for another entry.
### Prompt Fill: EC50 (human APJ receptor (Homo sapiens (Human))) for this molecule COc1cccc(-c2nnc(NS(=O)(=O)[C@@H](C)[C@H](C)c3ncc(Cl)cn3)n2-c2c(OC)ncnc2OC)n1
### Response 0.21

----------
Overview of recorded Isolated Heart Assay dP/dtmin (%) for various compounds
System: isolated perfused rat hearts
method_notes: Load independent inotropic effects, ex vivo assay (isolated perfused rat hearts, Langendorff)
experimental_setup: percent change over vehicle
Please state the figure in %; there is no need to write the unit.

As a guide, the following entries are already answered.
COc1cccc(OC)c1-n1c(NS(=O)(=O)[C@H](C)[C@@H](OC)c2ncc(Cl)cn2)nnc1-c1cncc(C)c1 (single isomer, unassigned)    20.0
Cc1cnc([C@@H](C)[C@H](C)S(=O)(=O)Nc2nnc(-c3cncc(C)c3)n2-c2c(F)cccc2F)nc1    5.16

### Prompt Provide one value: measured Isolated Heart Assay dP/dtmin (%) of CCO[C@H](c1ncc(C)cn1)[C@H](C)S(=O)(=O)Nc1nnc(-c2cccnc2)n1-c1c(OC)cccc1OC
### Response 25

### Prompt Provide one value: measured Isolated Heart Assay dP/dtmin (%) of COc1cccc(OC)c1-n1c(NS(=O)(=O)[C@H](C)[C@@H](OC)c2ccc(Cl)cn2)nnc1-c1cccnc1 (single isomer, unassigned)
### Response 1.9
